# System: HOP-62 NSCLC
# experiment notes: NCI tumour cell line growth inhibition, 48 h
Below, each entry is listed alongside its reported TGI.
quantity name: TGI

>>> readout_value("CC(=O)c1ccccc1NS(=O)(=O)c1ccc2nc(C)n(NS(=O)(=O)c3ccccc3C(C)=O)c(=O)c2c1")
"> 100 µM"
>>> readout_value("CCCCCCCCCCCCCCNCC(OCC)OCC")
"31.6 µM"
>>> readout_value("N#CCCN(CCC#N)c1ccc(C(N=Nc2ccc(Cl)cc2)=Nc2ccc(Cl)cc2)cc1")
"50.8 µM"
>>> readout_value("O=c1[nH]c(=O)n2n1C1C=CC2CC1")
"> 100 µM"
>>> readout_value("COc1ccc(/C=C2\\CN(C)CC3C2=NN(c2ccccc2)C3c2ccc(OC)cc2)cc1 (centres undefined)")
"> 100 µM"
>>> readout_value("COC(=O)c1ccc(C)cc1CC1Cc2c(C)cccc2C1=O (centres undefined)")
"> 53.4 µM"
>>> readout_value("CN(C)c1ccc(C(=C2C=CC(=[N+](C)C)C=C2)c2ccccc2Cl)cc1")
"0.949 µM"
>>> readout_value("C[N+](C)(C)C(C1=CCCC1=O)c1ccccc1 (centres undefined)")
"80.2 µM"
>>> readout_value("Nc1c2c(nc3ccccc13)CCCc1ccccc1-2")
"28 µM"
>>> readout_value("Cc1ccc(C)c(COCCOCn2c(=O)[nH]c(=O)c3cc(Br)ccc32)c1")
"> 100 µM"
>>> readout_value("O=S(=O)(O)c1ccccc1N=Nc1ccc(N=Nc2c(O)ccc3ccccc23)c(S(=O)(=O)O)c1")
"> 100 µM"
>>> readout_value("Cc1cccc(C(=O)O)c1CC1NCCC2c3ccccc3NC12 (centres undefined)")
"> 100 µM"
>>> readout_value("CCN(Cc1cccc(F)c1F)c1ccc(CO)c(Cl)c1")
"24.6 µM"
>>> readout_value("Cc1nc2ccccc2n1Cc1nnc2n1N=C(c1ccccc1)CS2")
"> 100 µM"
>>> readout_value("Cc1ccc2c(CC(=O)O)cc(=O)oc2c1")
"> 100 µM"
>>> readout_value("COc1ccc(-c2nc(-c3nc4ccc(C(F)(F)F)cc4[nH]3)c3ccccn23)cc1")
"> 100 µM"
>>> readout_value("O=C(Nc1cccc(-n2cc(-c3ccncc3)c(-c3ccc(O)c(Cl)c3)n2)c1)c1ccc(Cl)c(Cl)c1")
"> 100 µM"
>>> readout_value("CCCCCCCCCCCCCCCCOc1ccc(/C=C/C2=[N+](CCCl)CCO2)cc1")
"> 100 µM"
>>> readout_value("COC(=O)C1C(O)C(C)C(O)OC1C(C)C(O)C(C)/C=C\\C=C(/C)C(=O)Nc1c(C)c(OC(C)=O)c2c(c1O)C(=O)C(C)=C1OCOC(/C(C)=C/C(C)=O)=C12 (centres undefined)")
"23.5 µM"
>>> readout_value("Brc1ccc(-c2cc(-c3ccc4c(c3)OCO4)c(-c3cccs3)n2Cc2ccccc2)cc1")
"> 100 µM"
>>> readout_value("Cc1cc2c(=O)[nH]c(N)nc2nc1C")
"> 100 µM"
>>> readout_value("Cc1nc2ccccc2c(=O)n1/N=C/c1ccc(N(C)C)cc1")
"> 100 µM"
>>> readout_value("O=P1(Oc2ccccc2)NCc2ncccc2O1 (centres undefined)")
"> 100 µM"
>>> readout_value("NC(=O)C1CCCN1C(=O)N(CCCl)N=O (centres undefined)")
"> 100 µM"
>>> readout_value("O=[p+]1c2ccccc2[nH]c2ccccc21")
"> 100 µM"
>>> readout_value("CC(=O)N(C(C)=O)n1nc2c(n1)C(=O)c1ccccc1C2=O")
"> 100 µM"
>>> readout_value("COC(=O)C1=COc2c(n(C)c3ccccc23)-c2ccccc21")
"> 100 µM"
>>> readout_value("C/C=C1\\CCC2c3[nH]c4ccccc4c3CCN2C1 (centres undefined)")
"> 100 µM"
>>> readout_value("CN(C)/C=C/c1c2c(nc3ccccc13)C(=O)c1ccccc1C2=O")
"1.32 µM"
